Values compiled from ChEMBL document CHEMBL1201862.

System: K562
test description: NCI tumour cell line growth inhibition, 48 h
Activity calls are given as the source filed them. No stated cut-off is given here; in the data, active = GI50 up to about 1.1 µM and inactive = higher.
observable: GI50

• CCOC(=O)NC(Nc1ccc(F)cc1)(C(=O)OCC)C(F)(F)F (stereo not given) = < 0.0307 µM (active)

**Query** Which GI50 value is on record for O=C1OC2(OC2c2ccc(Cl)cc2)c2ccccc21 (stereo not given) ?
**Result** 53.1 µM (inactive)

**Query** Which GI50 value is on record for CCCC(CCC(N)=O)(CCC(N)=O)[N+](=O)[O-] ?
**Result** > 100 µM (inactive)

**Query** Which GI50 value is on record for COc1ccc(C(OC(C)=O)C2C(=C(C#N)C#N)c3ccccc3C2=C(C#N)C#N)cc1 (stereo not given) ?
**Result** 30.1 µM (inactive)

**Query** Which GI50 value is on record for Nc1c(C(=O)c2ccc(Cl)c(Cl)c2)[nH]c(NCc2ccccc2)c1C(=S)Nc1ccccc1 ?
**Result** 3.32 µM (inactive)
